- Test method notes: ATG_NFI_CIS: Attagene CIS-FACTORIAL HepG2 Assay for human Nuclear Factor I (NFI) (AID 2282989)
- Details: HepG2 cis-regulatory reporter, NFI response element transcription; actives raise or lower the signal
Activity calls are given as the source filed them. Rule for the calls: active = hit-call score of the fitted dose curve at least 0.9, where 1 is the maximum; inactive = score below 0.9.
Classes used: true (1) (active), false (0) (inactive)

{"Molecule": "O[Si](c1ccccc1)(c1ccccc1)c1ccccc1", "Discrete label": "true (1)"}
{"Molecule": "FC(F)(Br)C(F)(F)C(F)(F)C(F)(F)C(F)(F)C(F)(F)Br", "Discrete label": "false (0)"}
{"Molecule": "C#C[C@]1(O)CC[C@H]2[C@@H]3CCc4cc(OC)ccc4[C@H]3CC[C@@]21C", "Discrete label": "false (0)"}
{"Molecule": "Cc1cccc(N(C)C)c1", "Discrete label": "false (0)"}
{"Molecule": "CO[Si](OC)(c1ccccc1)c1ccccc1", "Discrete label": "false (0)"}
{"Molecule": "FC(F)(F)C(F)(F)C(F)(F)CI", "Discrete label": "false (0)"}
{"Molecule": "CCO[Si](CCC(F)(F)C(F)(F)C(F)(F)C(F)(F)C(F)(F)C(F)(F)F)(OCC)OCC", "Discrete label": "false (0)"}
{"Molecule": "FC1CC(F)(F)C(F)(F)C1(F)F (stereo unspecified)", "Discrete label": "false (0)"}
{"Molecule": "Cc1cc(C)cc(O)c1", "Discrete label": "false (0)"}
{"Molecule": "CC(C)(C)C(=O)CC(=O)C(F)(F)C(F)(F)C(F)(F)F", "Discrete label": "false (0)"}
{"Molecule": "OCC(F)(F)C(F)(F)C(F)(F)C(F)(F)C(F)(F)C(F)(F)F", "Discrete label": "false (0)"}
{"Molecule": "O=C(O)C(F)(F)C(F)(F)C(F)(F)F", "Discrete label": "false (0)"}
{"Molecule": "C=C(C)C(=O)OCC(F)(F)C(F)(F)C(F)(F)F", "Discrete label": "false (0)"}
{"Molecule": "C=CC(F)(F)C(F)(F)C(F)(F)C(F)(F)C(F)(F)C(F)(F)C(F)(F)C(F)(F)C=C", "Discrete label": "false (0)"}
{"Molecule": "Cc1ccc(S(=O)(=O)OCC(F)(F)C(F)(F)C(F)(F)C(F)(F)C(F)(F)C(F)F)cc1", "Discrete label": "false (0)"}
{"Molecule": "O=S(=O)(O)c1ccc2ccccc2c1", "Discrete label": "false (0)"}
{"Molecule": "O=P(O)(O)OCCC(F)(F)C(F)(F)C(F)(F)C(F)(F)C(F)(F)C(F)(F)F", "Discrete label": "false (0)"}
{"Molecule": "O=C(Cl)C(F)(F)C(F)(F)C(F)(F)C(F)(F)C(F)(F)C(F)(F)C(F)(F)C(F)(F)F", "Discrete label": "false (0)"}
{"Molecule": "FC(F)(I)C(F)(F)C(F)(F)C(F)(F)I", "Discrete label": "false (0)"}
{"Molecule": "CC(=O)Nc1ccc(N=Nc2cc(C)ccc2O)cc1", "Discrete label": "false (0)"}
{"Molecule": "CCC(=O)OCCc1ccccc1", "Discrete label": "false (0)"}
{"Molecule": "C(=C(c1ccccc1)c1ccccc1)c1ccccc1", "Discrete label": "false (0)"}
{"Molecule": "CCCCC(CC)COP(=O)(O)OCC(CC)CCCC (stereo unspecified)", "Discrete label": "false (0)"}
{"Molecule": "FC(F)(F)C(F)(F)C(F)(F)C(F)(F)C(F)(F)C(F)(F)CC1CO1 (stereo unspecified)", "Discrete label": "false (0)"}
{"Molecule": "O=C(O)C(F)(F)C(F)(F)C(F)F", "Discrete label": "false (0)"}
{"Molecule": "O=C(CC(=O)C(F)(F)C(F)(F)F)C(F)(F)F", "Discrete label": "false (0)"}

----------
- Test system: DIO2 (gene 1734)
- Test method notes: CCTE_GLTED_hDIO2: CCTE's human Deiodinase 2 (DIO2) Inhibition Assay, Great Lakes Toxicology and Ecology Division (GLTED) Lab (AID 2284050)
Activity calls are given as the source filed them. The calls were made as follows: active = hit-call score of the fitted dose curve at least 0.9, where 1 is the maximum; inconclusive = response in the unintended direction; inactive = score below 0.9.
Quick list: AC50 per entry.
Attribute measured: AC50

{"Entry smiles": "O=C(O)C(F)(F)C(F)(F)C(F)(F)C(F)(F)C(F)(F)C(F)(F)C(F)(F)C(F)(F)C(F)(F)C(F)F", "Result": "59.3 µM (active)"}
{"Entry smiles": "O=C(O)C(F)(F)C(F)(F)C(F)(F)C(F)(F)C(F)(F)C(F)(F)C(F)(F)C(F)(F)C(F)(F)C(F)(F)C(F)(F)C(F)(F)F", "Result": "74.9 µM (active)"}
{"Entry smiles": "C=CC(=O)OCC(F)(F)C(F)(F)C(F)(F)C(F)(F)COC(=O)C=C", "Result": "12.8 µM (active)"}
{"Entry smiles": "O=C(O)C(F)(F)C(F)(F)C(F)(F)C(F)(F)C(F)(F)C(F)(F)C(F)(F)C(F)(F)Cl", "Result": "100 µM (active)"}
{"Entry smiles": "CCN(Cc1cccc(S(=O)(=O)O)c1)c1ccc(C(=C2C=CC(=[N+](CC)Cc3cccc(S(=O)(=O)O)c3)C=C2)c2ccc(O)cc2S(=O)(=O)[O-])cc1", "Result": "48.5 µM (active)"}

----------
- Read-out: Tumor necrosis factor (Homo sapiens) (UniProt P01375)
- Sequence (P01375 whole entry, looked up): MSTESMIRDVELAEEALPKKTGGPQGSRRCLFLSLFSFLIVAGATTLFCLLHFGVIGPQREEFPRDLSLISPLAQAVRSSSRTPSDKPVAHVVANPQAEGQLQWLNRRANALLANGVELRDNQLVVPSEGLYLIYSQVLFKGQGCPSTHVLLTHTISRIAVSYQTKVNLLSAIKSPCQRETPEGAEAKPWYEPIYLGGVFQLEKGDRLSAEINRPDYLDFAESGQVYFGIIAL
- Test method notes: BSK_BT_xTNFa: BioMAP Diversity Plus: BT Assay for Tumor necrosis factor alpha (TNF-alpha) Biomarker Activity (AID 2284230)
- Details: primary human B cells with PBMC
Calls of active or inactive are those of the source. How the source made its calls: active means hit-call score of the fitted dose curve at least 0.9, where 1 is the maximum; inactive means score below 0.9.
Classes used: 1 for active, 0 for inactive

{"Entry smiles": "OCC(F)(F)C(F)(F)C(F)(F)C(F)F", "Discrete label": 0}
{"Entry smiles": "OCC(F)(F)C(F)(F)C(F)(F)C(F)(F)C(F)(F)C(F)F", "Discrete label": 0}
{"Entry smiles": "FC(F)(F)C(F)(F)C(F)(F)N(C(F)(F)C(F)(F)C(F)(F)F)C(F)(F)C(F)(F)C(F)(F)F", "Discrete label": 0}
{"Entry smiles": "CS(C)(=O)=O", "Discrete label": 0}
{"Entry smiles": "CCO[Si](CCC(F)(F)C(F)(F)C(F)(F)C(F)(F)C(F)(F)C(F)(F)F)(OCC)OCC", "Discrete label": 0}
{"Entry smiles": "C=CC/C=C/C/C=C/C/C=C/C", "Discrete label": 0}
{"Entry smiles": "CCCCCCCCCCCCCCCC[N+](C)(C)Cc1ccccc1", "Discrete label": 1}
{"Entry smiles": "FC(F)(F)C(F)(F)C(F)(F)C(F)(F)C(F)(F)C(F)(F)CCS", "Discrete label": 0}
{"Entry smiles": "CCc1ccc(C(c2ccc(CC)cc2)C(Cl)Cl)cc1", "Discrete label": 1}
{"Entry smiles": "O=C(O)C(F)(F)C(F)(F)C(F)F", "Discrete label": 0}
{"Entry smiles": "O=C(O)C(F)(F)C(F)(F)C(F)(F)C(F)(F)C(F)(F)C(F)(F)C(F)(F)C(F)(F)C(F)(F)C(F)(F)C(F)(F)C(F)(F)F", "Discrete label": 0}

----------
- Test method notes: BSK_3C_SRB: Viability Assessment in the BioMAP Diversity Plus: 3C Assay (AID 2283023);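 note: cells read 24 h after compound dosing; fitted both ways against DMSO so a hit may be signal rise or drop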
- Details: primary human endothelial cells (HUVEC)
- Protocol: BSK_3C is a cell-based, multiplexed-readout assay that uses umbilical vein endothelium, a human vascular primary cell, with measurements taken at 24 hours after chemical dosing in a 96-well plate.BSK_3C_SRB is an assay component measured in the BSK_3C assay. It measures 0.1% sulforhodamine related to cell death using Sulforhodamine staining technology.Data from the assay component BSK_3C_SRB was analyzed into 1 assay endpoint. […]
Calls of active or inactive are those of the source. Rule for the calls: active = hit-call score of the fitted dose curve at least 0.9, where 1 is the maximum; inactive = score below 0.9.
Classes used: 1.0 (active), 0.0 (inactive)

{"Compound": "O=C(O)C(F)(F)C(F)(F)C(F)F", "Discrete label": 0.0}
{"Compound": "FC(F)(F)C(F)(F)CNCC(F)(F)C(F)(F)F", "Discrete label": 0.0}
{"Compound": "OCC(F)(F)C(F)(F)C(F)(F)C(F)F", "Discrete label": 0.0}
{"Compound": "C=CC(=O)OCC(F)(F)C(F)(F)C(F)(F)C(F)(F)C(F)(F)C(F)(F)C(F)(F)F", "Discrete label": 0.0}
{"Compound": "FC(F)(F)C(F)(F)C(F)(F)C(F)(F)C(F)(F)CCI", "Discrete label": 0.0}
{"Compound": "OCC(F)(F)C(F)(F)C(F)(F)F", "Discrete label": 0.0}
{"Compound": "CCCCCCCCC(F)(F)C(F)(F)C(F)(F)C(F)(F)C(F)(F)C(F)(F)F", "Discrete label": 0.0}
{"Compound": "FC1CC(F)(F)C(F)(F)C1(F)F (configuration not stated)", "Discrete label": 0.0}
{"Compound": "CCCCNc1ccccc1", "Discrete label": 0.0}
{"Compound": "C=CC(F)(F)C(F)(F)C(F)(F)C(F)(F)C(F)(F)C(F)(F)C(F)(F)C(F)(F)C=C", "Discrete label": 0.0}
{"Compound": "O=C(O)C(F)(F)C(F)(F)OC(F)(F)F", "Discrete label": 0.0}
{"Compound": "CCc1ccc(C(c2ccc(CC)cc2)C(Cl)Cl)cc1", "Discrete label": 1.0}
